- Test system: RD cells
- EXPERIMENT_SUMMARY: Cytotoxicity in RD cells, neutral red method
- APPLIED_CONDITIONS: read-out: CC50 in RD cells, mean ± SD of three repeats
Counter-ions that a name gives are not always drawn.
TEST_READOUT: CC50 (µM)
The reply should be a number in µM, with the unit left off.

Please give the measured CC50 for this compound: Cc1ccc2c(c1)c1c3n2CCNC3CCC1 (centres unmarked) [pirlindole mesylate]
19

---

Recorded CC50 by entry
- Tested on: Vero C1008 cells
- EXPERIMENT_SUMMARY: Cytotoxicity in Vero C1008 cells, neutral red method
- Assay type: cell-based
- APPLIED_CONDITIONS: read-out: CC50 in Vero C1008 cells
Where a name gives a salt, the structure may show the parent alone.
The reply should be a number in µM, with the unit left off.

{"COMPOUND": "Cc1ccc2c(c1)c1c3n2CCNC3CCC1 (stereo not shown) [pirlindole mesylate]", "UNIT_NAME": "µM", "CC50": 40.5}

Query compound follows.
Form entry - test system: Vero C1008 cells; read-out: CC50; compound: CNCCC(Oc1ccc(C(F)(F)F)cc1)c1ccccc1 (stereo not shown) [fluoxetine]
11
